Tested on: arterial blood pressure
protocolDetails: Change of arterial blood pressure in anesthetized dogs (Experimental Example 4)
experimentalConditions: 100 μg/kg i.v., 1 min
The reader will find reported Arterial Blood Pressure change (side effects) values listed item by item below.

- molecule: "COc1ccc([C@H]2Sc3ccccc3N(CCN(C)C)C(=O)[C@H]2OC(C)=O)cc1"
  experimentalValue: "-1.5 ΔmmHg"
- molecule: "CC(=O)O[C@H]1C(=O)N(CCN(C)C)c2ccc(C)cc2S[C@H]1c1ccc(C)cc1 [G, reference compound]"
  experimentalValue: "-11.0 ΔmmHg"

Request: Value lookup for Arterial Blood Pressure change (side effects); key = CC(=O)O[C@@H]1C(=O)N(CCN(C)C)c2ccc(C)cc2S[C@@H]1c1ccc(C)cc1
Response: -1.3 ΔmmHg

Request: // query: COc1ccc([C@@H]2Sc3ccccc3N(CCN(C)C)C(=O)[C@@H]2OC(C)=O)cc1 [H, reference compound]
Response: -11.5 ΔmmHg
